- System: Streptococcus pyogenes
- run_description: Subcutaneously administration into mice infected with Streptococcus pyogenes C 203
- Type: functional
- assay_context: sc
parameter: ED50
The answer should read as a number with its unit following.

Retrieve ED50 measured for CC(=O)N[C@@H]1[C@H](O[C@@H]2c3ccc(c(Cl)c3)Oc3cc4cc(c3O[C@@H]3O[C@@H](CO)[C@@H](O)[C@H](O)[C@@H]3NC(=O)CCCCCCC(C)C)Oc3ccc(cc3Cl)C[C@H]3NC(=O)[C@H](N)c5ccc(O)c(c5)Oc5cc(O)cc(c5)[C@H](NC3=O)C(=O)N[C@H]4C(=O)N[C@H]3C(=O)N[C@@H]2C(=O)N[C@H](C(=O)NCC(=O)O)c2cc(O)cc(O[C@H]4O[C@H](CO)[C@@H](O)[C@@H](O)[C@@H]4O)c2-c2cc3ccc2O)O[C@@H](CO)[C@@H](O)[C@@H]1O and print it. 0.23 mg/kg

* * *

- System: Streptococcus pneumoniae
- run_description: In vitro minimum inhibitory concentration against Streptococcus pneumoniae UC41
- Type: functional
# MIC per entry
Write down the numeric answer in µg/mL and omit the unit.

Consider the reported MIC for these compounds:
>  <smiles>
CCCCC/C=C/CCC(=O)N[C@@H]1[C@H](Oc2c3cc4cc2Oc2ccc(cc2Cl)[C@@H](O[C@@H]2O[C@@H](CO)[C@@H](O)[C@H](O)[C@@H]2NC(C)=O)[C@@H]2NC(=O)[C@H](NC(=O)[C@@H]4NC(=O)[C@H]4NC(=O)[C@@H](Cc5ccc(c(Cl)c5)O3)NC(=O)[C@H](N)c3ccc(O)c(c3)Oc3cc(O)cc4c3)c3ccc(O)c(c3)-c3c(O[C@H]4O[C@H](CO)[C@@H](O)[C@@H](O)[C@@H]4O)cc(O)cc3[C@@H](C(=O)O)NC2=O)O[C@@H](CO)[C@@H](O)[C@@H]1O

>  <parameter>
MIC

>  <number>
0.06

$$$$
>  <smiles>
CCCCN(CCCC)CCCNC(=O)[C@H]1NC(=O)[C@H]2NC(=O)[C@H](NC(=O)[C@@H]3NC(=O)[C@H]4NC(=O)[C@@H](Cc5ccc(c(Cl)c5)Oc5cc3cc(c5O[C@@H]3O[C@@H](CO)[C@@H](O)[C@H](O)[C@@H]3NC(=O)CCCCCCC(C)C)Oc3ccc(cc3Cl)[C@H]2O[C@@H]2O[C@@H](CO)[C@@H](O)[C@H](O)[C@@H]2NC(C)=O)NC(=O)[C@H](N)c2ccc(O)c(c2)Oc2cc(O)cc4c2)c2ccc(O)c(c2)-c2c(O[C@H]3O[C@H](CO)[C@@H](O)[C@@H](O)[C@@H]3O)cc(O)cc21

>  <parameter>
MIC

>  <number>
0.06

$$$$
>  <smiles>
CN(C)CCN(C)C(=O)[C@H]1NC(=O)[C@H]2NC(=O)[C@H](NC(=O)[C@@H]3NC(=O)[C@H]4NC(=O)[C@@H](Cc5ccc(c(Cl)c5)Oc5cc3cc(c5O)Oc3ccc(cc3Cl)[C@H]2O)NC(=O)[C@H](N)c2ccc(O)c(c2)Oc2cc(O)cc4c2)c2ccc(O)c(c2)-c2c(O)cc(O)cc21

>  <parameter>
MIC

>  <number>
0.06

$$$$
>  <smiles>
CCOC(=O)CNC(=O)[C@H]1NC(=O)[C@H]2NC(=O)[C@H](NC(=O)[C@@H]3NC(=O)[C@H]4NC(=O)[C@@H](Cc5ccc(c(Cl)c5)Oc5cc3cc(c5O[C@@H]3O[C@@H](CO)[C@@H](O)[C@H](O)[C@@H]3NC(=O)CCCCCCC(C)C)Oc3ccc(cc3Cl)[C@H]2O[C@@H]2O[C@@H](CO)[C@@H](O)[C@H](O)[C@@H]2NC(C)=O)NC(=O)[C@H](N)c2ccc(O)c(c2)Oc2cc(O)cc4c2)c2ccc(O)c(c2)-c2c(O[C@H]3O[C@H](CO)[C@@H](O)[C@@H](O)[C@@H]3O)cc(O)cc21

>  <parameter>
MIC

>  <number>
0.06

$$$$
>  <smiles>
CC(=O)N[C@@H]1[C@H](O[C@@H]2c3ccc(c(Cl)c3)Oc3cc4cc(c3O[C@@H]3O[C@@H](CO)[C@@H](O)[C@H](O)[C@@H]3NC(=O)CCCCCCC(C)C)Oc3ccc(cc3Cl)C[C@H]3NC(=O)[C@H](N)c5ccc(O)c(c5)Oc5cc(O)cc(c5)[C@H](NC3=O)C(=O)N[C@H]4C(=O)N[C@H]3C(=O)N[C@@H]2C(=O)N[C@H](C(=O)NCCN)c2cc(O)cc(O[C@H]4O[C@H](CO)[C@@H](O)[C@@H](O)[C@@H]4O)c2-c2cc3ccc2O)O[C@@H](CO)[C@@H](O)[C@@H]1O

>  <parameter>
MIC

>  <number>
0.12

$$$$

Report measured MIC; entry is CCCCC/C=C/CCC(=O)N[C@@H]1[C@H](Oc2c3cc4cc2Oc2ccc(cc2Cl)[C@@H](O[C@@H]2O[C@@H](CO)[C@@H](O)[C@H](O)[C@@H]2NC(C)=O)[C@@H]2NC(=O)[C@H](NC(=O)[C@@H]4NC(=O)[C@H]4NC(=O)[C@@H](Cc5ccc(c(Cl)c5)O3)NC(=O)[C@H](N)c3ccc(O)c(c3)Oc3cc(O)cc4c3)c3ccc(O)c(c3)-c3c(O[C@H]4O[C@H](CO)[C@@H](O)[C@@H](O)[C@@H]4O)cc(O)cc3[C@@H](C(=O)NC3CCNCC3)NC2=O)O[C@@H](CO)[C@@H](O)[C@@H]1O 0.06

Supply reported MIC belonging to this compound: CC(=O)N[C@@H]1[C@H](O[C@@H]2c3ccc(c(Cl)c3)Oc3cc4cc(c3O[C@@H]3O[C@@H](CO)[C@@H](O)[C@H](O)[C@@H]3NC(=O)CCCCCCC(C)C)Oc3ccc(cc3Cl)C[C@H]3NC(=O)[C@H](N)c5ccc(O)c(c5)Oc5cc(O)cc(c5)[C@H](NC3=O)C(=O)N[C@H]4C(=O)N[C@H]3C(=O)N[C@@H]2C(=O)N[C@H](C(=O)NCc2ccccn2)c2cc(O)cc(O[C@H]4O[C@H](CO)[C@@H](O)[C@@H](O)[C@@H]4O)c2-c2cc3ccc2O)O[C@@H](CO)[C@@H](O)[C@@H]1O 0.06

Give me measured MIC, please, for this compound: CC(=O)N[C@@H]1[C@H](O[C@@H]2c3ccc(c(Cl)c3)Oc3cc4cc(c3O[C@@H]3O[C@@H](CO)[C@@H](O)[C@H](O)[C@@H]3NC(=O)CCCCCCC(C)C)Oc3ccc(cc3Cl)C[C@H]3NC(=O)[C@H](N)c5ccc(O)c(c5)Oc5cc(O)cc(c5)[C@H](NC3=O)C(=O)N[C@H]4C(=O)N[C@H]3C(=O)N[C@@H]2C(=O)N[C@H](C(=O)NCCCCN(C)C)c2cc(O)cc(O[C@H]4O[C@H](CO)[C@@H](O)[C@@H](O)[C@@H]4O)c2-c2cc3ccc2O)O[C@@H](CO)[C@@H](O)[C@@H]1O 0.12
